Test system: PPARg DBDmut:RXRa IVT, anti-PPARg (DBD mutation: PPARg1 K132A/R137A, NR concentration 270 nM, RXRa partner concentration 90 nM)
assay: PBM binding z-score (relative to random genomic background probes); higher = stronger binding; sequences stand for … in GC…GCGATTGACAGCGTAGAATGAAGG
measured.attribute: PBM binding z-score
Give bare numbers.

Here's what some known entries look like.
GCGAGCAGGCCATTTGGGTCACTCAATGACGGGC -1.33
ACTAGCAGGCCAGGTTTGGGTCACTCAAACAAAG -0.511
GATATAGGGTCAAGGCCAGAGTACGCGTATTGAT 1.73
ACTATTAGTTGAGTCGAGGGCAACCGATAGGTTG 0.679
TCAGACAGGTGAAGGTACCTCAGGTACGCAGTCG 0.0512
ACTAGCAGGCCAAGTTTCGGTCACTCAAACAAAG -0.762

Here are 3 sequences. What values of PBM binding z-score were reported for them?
1. GCTTACGGGTCAGAGGTTATAGCATGAATAGAAT
2. TGAATGACGTTATAAGATCAGGGAACGTTGCAAA
3. TCTTGTAGATCAAAAGGAGGTTAAGAAAGATCGA

Response:
1: 0.344; 2: 1.11; 3: 0.192
